- target_or_system: Prostaglandin G/H synthase 2 (Homo sapiens)
- Sequence (P35354 whole entry): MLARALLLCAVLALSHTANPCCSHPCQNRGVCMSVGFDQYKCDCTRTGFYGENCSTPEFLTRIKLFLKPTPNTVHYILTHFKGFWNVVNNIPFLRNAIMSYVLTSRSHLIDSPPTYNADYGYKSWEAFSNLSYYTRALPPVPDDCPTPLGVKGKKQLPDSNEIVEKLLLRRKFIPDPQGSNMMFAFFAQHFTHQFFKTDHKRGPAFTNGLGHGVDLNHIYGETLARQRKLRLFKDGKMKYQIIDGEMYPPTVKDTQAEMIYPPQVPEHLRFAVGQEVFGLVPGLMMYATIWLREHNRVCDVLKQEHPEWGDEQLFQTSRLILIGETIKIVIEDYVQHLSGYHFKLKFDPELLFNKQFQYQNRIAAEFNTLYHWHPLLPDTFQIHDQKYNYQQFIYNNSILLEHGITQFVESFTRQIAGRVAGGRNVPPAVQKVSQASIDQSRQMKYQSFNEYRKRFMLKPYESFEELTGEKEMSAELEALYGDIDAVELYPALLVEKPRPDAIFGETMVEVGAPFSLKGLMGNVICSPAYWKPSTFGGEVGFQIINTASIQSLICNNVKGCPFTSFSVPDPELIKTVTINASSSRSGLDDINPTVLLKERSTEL
pIC50: −log10 of the molar value.
readout_kind: pIC50

1: CC(C)(COc1ccc(Br)cc1)C(=O)NCCCN1c2ccccc2Sc2ccccc21
2: CC(O)CN1c2ccccc2Sc2ccccc21 (configuration not stated)
Between the two listed entries 1 and 2 , which has its pIC50 at the higher number? Kindly state the label of the option you pick.
2
(2: 5.30, 1: 4.68)

----------
- target_or_system: Prostaglandin G/H synthase 2 (Homo sapiens)
- assay_protocol: Compound was evaluated for percent inhibition of Prostaglandin G/H synthase 2 at the concentration of 0.3 uM
readout_kind: inhibition (%)

Some solved entries appear below for comparison.
>>> print(df.to_string())
                    structure_smiles_string  reported
0  CC(C)(COc1ccc(Br)cc1)C(=O)NCCCN1c2ccccc2Sc2ccccc21        34
1  O=C(COc1ccc(Br)cc1)NCCCN1c2ccccc2Sc2ccccc21        15
2           CCC(=O)NCCCN1c2ccccc2Sc2ccccc21        18

P: O=C(CCC1CCCCC1)NCCCN1c2ccccc2Sc2ccccc21
Q: CC(C)(Oc1ccc(Cl)cc1)C(=O)NCCCN1c2ccccc2Sc2ccccc21
Select the item with the higher value of inhibition from the options P and Q listed. Please reply using the label of the selected record.
Q
(Q: 44%, P: 15%)
